Biological target: T1, TIGIT (Homo sapiens (Human), UniProt Q495A1 22-244)
T1 construct: on transfected cells
T1 sequence: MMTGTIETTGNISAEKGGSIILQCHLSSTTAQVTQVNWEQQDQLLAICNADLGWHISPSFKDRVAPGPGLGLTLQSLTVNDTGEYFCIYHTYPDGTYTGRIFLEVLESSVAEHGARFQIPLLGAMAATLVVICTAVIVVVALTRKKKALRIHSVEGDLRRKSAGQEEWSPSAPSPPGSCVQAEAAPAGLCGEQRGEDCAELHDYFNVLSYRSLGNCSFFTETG
Experiment: flow cytometry, transfected cells
Please provide measured MFI parental ratio for the entries that follow.
Numbers only, in ratio.

The examples below pair each entry with its known result.
{"columns": ["binder", "unit-name", "MFI parental ratio"],
 "data": [
  ["variant CD155 IgV-Fc A81V, L83P (Fc fusion, not shown: a dimerising Fc or GST) WPPPGTGDVVVQAPTQVPGFLGDSVTLPCYLQVPNMEVTHVSQLTWARHGESGSMAVFHQTQGPSYSESKRLEFVAARLGVEPRNASLRMFGLRVEDEGNYTCLFVTFPQGSRSVDIWLRVL", "ratio", 1.1],
  ["Wildtype CD155 IgV Fc (Fc fusion, not shown: a dimerising Fc or GST) WPPPGTGDVVVQAPTQVPGFLGDSVTLPCYLQVPNMEVTHVSQLTWARHGESGSMAVFHQTQGPSYSESKRLEFVAARLGAELRNASLRMFGLRVEDEGNYTCLFVTFPQGSRSVDIWLRVL", "ratio", 1],
  ["variant CD155 IgV-Fc P18T, F91S, R94H (Fc fusion, not shown: a dimerising Fc or GST) WPPPGTGDVVVQAPTQVTGFLGDSVTLPCYLQVPNMEVTHVSQLTWARHGESGSMAVFHQTQGPSYSESKRLEFVAARLGAELRNASLRMSGLHVEDEGNYTCLFVTFPQGSRSVDIWLRVL", "ratio", 1.1]
]}

Consider the record given below.
Request the reported MFI parental ratio associated with variant CD155 IgV-Fc P18L, L79V, F91S (Fc fusion, not shown: a dimerising Fc or GST) WPPPGTGDVVVQAPTQVLGFLGDSVTLPCYLQVPNMEVTHVSQLTWARHGESGSMAVFHQTQGPSYSESKRLEFVAARVGAELRNASLRMSGLRVEDEGNYTCLFVTFPQGSRSVDIWLRVL
1.5
